Tested on: RAW-Dual (murine macrophage reporter line)
EXPERIMENTAL PROTOCOL: NF-kB reporter (SEAP) activity fold change vs agonist alone; higher = enhanced NF-kB activity
STUDY CONDITIONS: modulator concentration 10 µM; agonist: CpG ODN 1826 0.5 ug/mL
Would you please tag the item yes (1) when its NF-kB reporter is 0.9 or above, and no (0) when it is below?

| MOLECULE | CAT |
| --- | --- |
| Cn1c2c(c3ccccc31)CCCC2NC=O (stereo not given) | no (0) |
| Cc1cc(OCC(=O)NN=Cc2ccc(O)c([N+](=O)[O-])c2)ccc1Cl | yes (1) |
| COC(=O)c1cc(NC(=O)c2cc(OC)c(OC)cc2[N+](=O)[O-])cc(C(=O)OC)c1 | yes (1) |
| O=c1cccnn1CC1CN(c2ncc(Br)cn2)C1 | yes (1) |
| CCN(CC)CCNC(=O)c1ccc(N)cc1.Cl | yes (1) |
| CN(C)CCOC(c1ccccc1)c1ccccc1.Cl | yes (1) |
| COc1ccc(N(CC(=O)N2CCc3ccccc3C2)S(C)(=O)=O)c(OC)c1 | yes (1) |
| Cc1oncc1C(=O)Nc1ccc(C(F)(F)F)cc1 | yes (1) |
| COc1ccc(CNc2nc(N3CCC[C@H]3CO)ncc2C(=O)NCc2ncccn2)cc1Cl | no (0) |
| Cc1cc(=O)n(CC(=O)N2CCC(c3ccccc3F)S(=O)(=O)CC2)cn1 (stereo not given) | yes (1) |
| Cc1ccc2[nH]c(=O)c(-c3cc(-c4ccccc4)c4ccccc4n3)c(-c3ccccc3)c2c1 | yes (1) |
| CCCC(CCC)C(N)=O | yes (1) |
| COc1cc(Br)c(C=C(C#N)c2nn(-c3ccccc3)c(N)c2C#N)cc1OC | yes (1) |
| CCOC(=O)C1=CC2(CC)CCCN3CCc4c(n1c1ccccc41)C32 (stereo not given) | no (0) |
| COC(=O)C1=C(C)NC(C)=C(C(=O)OC(C)C)C1c1cccc2nonc12 (stereo not given) | no (0) |
| O=C(OC1Cc2c(O)cc(O)cc2OC1c1cc(O)c(O)c(O)c1)c1cc(O)c(O)c(O)c1 (stereo not given) | no (0) |
| COC1(c2ccc(Cl)cc2)OC(=O)c2ccccc21 (stereo not given) | no (0) |
| COc1ccc(C2N3CC4(C)CN2CC(C)(C3)C4=O)cc1 (stereo not given) | yes (1) |
| CC(c1ccccc1)c1nnc(NC(=O)c2ccco2)s1 (stereo not given) | no (0) |
| CN(C/C=C/C#CC(C)(C)C)Cc1cccc2ccccc12.Cl | yes (1) |
| CCCC(=O)Nc1ncnc2c1ncn2[C@@H]1O[C@@H]2OP(=O)([O-])OC[C@H]2[C@H]1OC(=O)CCC [Prestw-813] | yes (1) |
| O=C(NCC(O)c1ccc(C(F)(F)F)cc1)c1cc(Br)cs1 (stereo not given) | yes (1) |
| CCOC(=O)N(CC(=O)OC)CP(=O)(O)C(Cc1ccccc1)C(=O)O (stereo not given) | yes (1) |
| CN1CCN(c2ccc(-c3cccc(NC(=O)COc4ccc(Cl)cc4Cl)c3)nn2)CC1 | no (0) |
| CN(C)C=C1C(=O)N(c2nc3ccccc3s2)N=C1CSc1ccc(Cl)cc1 | yes (1) |
| Nc1c2c(nc3ccccc13)CCCC2O (stereo not given) [Prestw-448] | yes (1) |
| COc1c(C)c2c(c(O)c1CC=C(C)CCC(=O)O)C(=O)OC2 | no (0) |
| Cc1c(C)n2c3c(=O)n(CC=Cc4ccccc4)c(=O)n(C)c3nc2n1CCOCCO | no (0) |
| Cc1nnc(NC(=O)c2cccc([N+](=O)[O-])c2)s1 | yes (1) |
| CC(=NOCCCl)C(C)=NOCCCl | yes (1) |
| CC(=O)Oc1ccc2occ(C(=O)c3cccs3)c2c1 | no (0) |
| CCN(CC)CCNc1ccc(CO)c2sc3ccccc3c(=O)c12 [Prestw-355] | no (0) |
| CC(C)CN(CC(O)C(Cc1ccccc1)NC(=O)OC1COC2OCCC12)S(=O)(=O)c1ccc(N)cc1 (stereo not given) [Prestw-1802] | yes (1) |
| O=C(CCCCCCNC(=O)c1cnc(N(c2ccccc2)c2ccccc2)nc1)NO | yes (1) |
| COc1ccc(C(=O)NCCOc2cc(C)cc(C)c2)cc1OC | yes (1) |
| CCN(CC)CC#CCOC(=O)C(O)(c1ccccc1)C1CCCCC1.Cl (stereo not given) | no (0) |
| Cc1ccccc1N=Nc1ccc(NC(=O)c2ccnn2C)c(C)c1 | yes (1) |
| O=C(CCc1ccc(O)cc1)c1c(O)cc(O)cc1O | yes (1) |
| O=S(=O)(Nc1nc2ccccc2nc1Nc1ccc2c(c1)OCCO2)c1cccs1 | yes (1) |

====

System: RAW-Dual (murine macrophage reporter line)
EXPERIMENTAL PROTOCOL: NF-kB reporter (SEAP) activity fold change vs agonist alone; higher = enhanced NF-kB activity
STUDY CONDITIONS: modulator concentration 10 µM; agonist: MPLA […]

| COMPOUND | NF-kB reporter |
| --- | --- |
| Brc1c(NC2=NCCN2)ccc2nccnc12 | 0.97 |
| CC1(C)CC(=O)c2sc(NC(=O)c3ccccc3)nc2C1 | 1 |
| COc1cc(C2C(C(=O)c3ccccc3)=C(O)C(=O)N2c2cccnc2)ccc1O (stereo unspecified) | 0.582 |
| Cc1ccc(C)c(Cc2cc([N+](=O)[O-])ccc2C)c1 | 0.726 |
| Cc1ccc(-n2c(=O)c3c4c(sc3n3c(S)nnc23)CCCC4)cc1 | 0.923 |
| Cc1ccccc1-c1noc(-c2cc3ccccc3oc2=O)n1 | 0.917 |
| CC1(C)CCC2(C(=O)O)CCC3(C)C(=CCC4C5(C)CCC(O)C(C)(C)C5CCC43C)C2C1 (stereo unspecified) | 0.942 |
| Cc1ccc(N2C(=O)C(=CC3CC=CCC3)SC2=S)cc1 (stereo unspecified) | 0.817 |
| O=C(CCCCCN1C(=O)c2cccc3cccc(c23)C1=O)NCCO | 0.872 |
| CCOC(=O)N1CCN(C(=O)C2CCN(Cc3ccc(C)o3)CC2)CC1 | 0.98 |
| OCCN1CCN(CC/C=C2/c3ccccc3Sc3ccc(Cl)cc32)CC1 | 1.36 |

====

System: RAW-Dual (murine macrophage reporter line)
EXPERIMENTAL PROTOCOL: IRF reporter (Lucia luciferase) activity fold change vs agonist alone; higher = enhanced IRF activity
STUDY CONDITIONS: modulator concentration 10 µM; agonist: LPS 0.1 ug/mL
Item-by-item account of IRF reporter
ENDPOINT LABEL: IRF reporter

| MOLECULE | RECORDED VALUE |
| --- | --- |
| Cc1cc(C)nc(NS(=O)(=O)c2ccc(NC(=O)C=Cc3cccc4ccccc34)cc2)n1 | 1.21 |
| O=C(CCc1csc(NC(=O)c2ccco2)n1)Nc1ccc(Cl)cc1 | 1.44 |
| Cc1ccc(C23CC4CC(CC(CN)(C4)C2)C3)cc1C.Cl | 0.32 |
| O=C(Nc1cc(C(F)(F)F)cc(C(F)(F)F)c1)c1ccc([N+](=O)[O-])cc1 | 1.42 |
| Cc1ccccc1CC(CC(=O)O)C(=O)O (configuration not stated) | 1.21 |
| O=C(Nc1ccc(-c2cn3ccsc3n2)cc1)NC1CCCCC1 | 0.923 |
| Cc1ccc(NC(=O)Nc2c(C)nc(N3CCN(C)CC3)nc2C)cc1F | 1.21 |
| CCC(C(=O)Nc1cc(Cl)cc(Cl)c1)c1ccccc1 (configuration not stated) | 1.11 |
| COc1ccc(OC)c(S(=O)(=O)NCC2CC(=O)N(c3ccc(Cl)cc3)C2)c1 (configuration not stated) | 1.27 |
| O=C(c1cc(C(F)(F)F)cc(C(F)(F)F)c1)N1CCOCC1CO (configuration not stated) | 1.04 |
| N#CC(=Cc1c(F)cccc1Cl)C(=O)Nc1ccc(Cl)cc1 | 1.3 |
| COc1ccc(NC(=O)Cc2cn(Cc3ccccc3)c3ccccc23)cc1OC | 1.24 |
| CN1CC(O)C2=C/C(=N/NC(N)=O)C(=O)C=C21 (configuration not stated) | 1.09 |
| Cc1cc(C(O)CCNC(=O)COc2cccc3c2OC(C)(C)C3)c(C)o1 (configuration not stated) | 0.992 |
| CCOC(=O)c1ccc(N)cc1.Cl | 1.25 |
| CN(C)CCCN(C(=O)Cc1ccc(F)cc1)c1nc2ccc(Cl)cc2s1.Cl | 0.714 |
| CCOC(=O)c1cc(-c2ccccc2)sc1NC(=O)C(C)(C)C | 1.3 |
| Br.O=S(=O)(c1ccc(-c2csc(Nc3ccc(Cl)cc3)n2)cc1)N1CCOCC1 | 1.11 |
| O=[N+]([O-])c1ccc(CN2c3ccccc3C3=C(CCCC3)C23CCCCC3)cc1 | 1.33 |
| Cc1n[nH]c(C)c1S(=O)(=O)N1CCCN(C(=O)Cc2ccccc2Cl)CC1 | 1.21 |
| CC(C)CC(C(=O)Nc1cccc(O)c1)N1C(=O)c2ccccc2C1=O (configuration not stated) | 1.64 |
| COc1ccc(-n2c(=O)c3c4c(sc3n3c(SC)nnc23)CCCC4)cc1 | 0.96 |
| CCn1c(=O)c2c(nc(/C=C/c3ccc(OC)c(OC)c3)n2C)n(CC)c1=O | 1.21 |
| Nc1ccn([C@H]2CC[C@@H](CO)O2)c(=O)n1 | 0.976 |
| COc1ccc(C=NNc2nc(Nc3ccc(C)cc3Br)nc(N3CCOCC3)n2)c(OC)c1 | 1.67 |
| COc1ccc(-n2nc(C(N)=O)c3c2C(=O)N(c2ccc(N4CCCCC4=O)cc2)CC3)cc1 | 1.19 |
| O=C1C(O)=C(c2ccc([N+](=O)[O-])cc2)C(=O)c2ccccc21 | 1.53 |
| COC(=O)N[C@H](C(=O)N1CCC[C@H]1c1ncc(-c2ccc(-c3ccc(-c4cnc([C@@H]5CCCN5C(=O)[C@@H](NC(=O)OC)C(C)C)[nH]4)cc3)cc2)[nH]1)C(C)C | 1.52 |
| O=S(=O)(Cc1ccccc1)Nc1ccccn1 | 1.49 |
| O=C(OCCN1CCCCC1)c1ccc(O)cc1 | 1.03 |
| O=C(Nc1ccc(Cl)cc1)C(Sc1ccccc1)c1ccccc1 (configuration not stated) | 1.38 |
| Nc1nc(N)c2nc(-c3ccccc3)c(N)nc2n1 | 1.17 |
| CCn1ccc(C(=O)N2CCN(c3cc(C(F)(F)F)nc(C)n3)CC2)n1 | 0.744 |
| Cc1ccc(CN2C3=NCCCN3c3ccccc32)cc1.Cl | 1.27 |
| NC[C@@H]1O[C@H](O[C@@H]2[C@@H](CO)OC(O[C@@H]3[C@@H](O)[C@H](N)C[C@H](N)[C@H]3O[C@H]3O[C@H](CN)[C@@H](O)[C@H](O)[C@H]3N)[C@@H]2O)[C@H](N)[C@@H](O)[C@@H]1O.O=S(=O)(O)O (some centres not stated) | 1.02 |
| CCC(=O)Nc1ccc(C(=O)NN=Cc2ccc(C#N)cc2)cc1 | 1.53 |
| COc1ccc(S(=O)(=O)NCCn2nc(C(F)(F)F)cc2C2CC2)cc1 | 0.953 |
| Cc1ccc(-n2ncc3c(=O)n(CC=Cc4ccccc4)cnc32)cc1C | 1.19 |
| Clc1ccc(Nc2nc(Nc3ccc(Cl)cc3)nc(N3CCOCC3)n2)cc1 | 1.26 |
| Cc1ccc2nc(NC(=O)CSc3nc4c(c(=O)n3-c3ccccc3)SCC4)sc2c1 | 1.16 |
| c1ccc(-n2nnnc2SCc2ccc3c(c2)OCO3)cc1 | 0.988 |
| Cc1cnc(C(=O)O)c[n+]1[O-] | 0.966 |
